TARGET: T1, biotinylated Fc-fused monkey CD137 (monkey, biotin on the AviTag)
T1 construct: also called cyCD137-Fc-BAP
T1 sequence (chain, as listed by the source limits assumed): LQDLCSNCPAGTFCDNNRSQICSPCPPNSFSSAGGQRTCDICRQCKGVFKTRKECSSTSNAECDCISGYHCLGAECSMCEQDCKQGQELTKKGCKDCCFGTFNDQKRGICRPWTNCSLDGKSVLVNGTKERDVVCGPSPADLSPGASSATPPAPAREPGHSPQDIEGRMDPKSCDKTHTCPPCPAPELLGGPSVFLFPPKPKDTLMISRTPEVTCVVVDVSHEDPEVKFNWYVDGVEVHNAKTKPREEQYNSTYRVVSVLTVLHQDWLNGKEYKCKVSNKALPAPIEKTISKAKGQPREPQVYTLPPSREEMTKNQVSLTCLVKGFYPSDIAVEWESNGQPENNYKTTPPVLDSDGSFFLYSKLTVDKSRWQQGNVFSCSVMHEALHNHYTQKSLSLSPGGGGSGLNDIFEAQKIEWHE
METHOD_DESCRIPTION: ELISA, 1 mM ADP, 0.156 ug/mL
Set-up: reference not given here

BINDER	absorbance ratio
dBBAT122-P253 (antibody, human IgG1, lambda, V domains shown) VH: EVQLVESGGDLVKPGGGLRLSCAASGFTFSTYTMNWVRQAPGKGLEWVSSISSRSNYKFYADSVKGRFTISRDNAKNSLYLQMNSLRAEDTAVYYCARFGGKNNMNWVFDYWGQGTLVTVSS VL: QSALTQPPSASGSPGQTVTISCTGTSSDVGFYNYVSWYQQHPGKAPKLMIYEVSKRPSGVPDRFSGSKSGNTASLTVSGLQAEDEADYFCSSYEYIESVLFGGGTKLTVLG	1.9
dBBAT021-P253 (antibody, human IgG1, lambda, V domains shown) VH: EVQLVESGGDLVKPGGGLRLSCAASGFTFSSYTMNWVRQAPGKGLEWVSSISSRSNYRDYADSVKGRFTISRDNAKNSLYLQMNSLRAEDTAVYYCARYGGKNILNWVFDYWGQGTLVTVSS VL: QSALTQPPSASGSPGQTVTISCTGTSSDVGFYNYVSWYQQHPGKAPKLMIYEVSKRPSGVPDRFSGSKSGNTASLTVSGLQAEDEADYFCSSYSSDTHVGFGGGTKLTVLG	1.7
dBBAT091-P253 (antibody, human IgG1, lambda, V domains shown) VH: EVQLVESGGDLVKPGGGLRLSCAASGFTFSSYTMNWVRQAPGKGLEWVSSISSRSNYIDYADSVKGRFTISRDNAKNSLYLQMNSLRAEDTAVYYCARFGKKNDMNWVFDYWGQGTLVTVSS VL: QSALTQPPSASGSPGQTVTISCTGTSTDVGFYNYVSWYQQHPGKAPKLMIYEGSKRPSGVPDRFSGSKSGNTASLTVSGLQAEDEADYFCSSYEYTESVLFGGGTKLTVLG	0.7
